# Test system: Liver
# assayRemarks: Drug uptake in ICR mouse liver at 370 kBq/100 ul, iv at 30 mins by gamma-counting analysis
# Format: ADME, organism-based
# measurementContext: in vivo, 0.5 h
readoutLabel: Drug uptake (% ID/g)
Answers are plain numbers, in % ID/g.

CN(C)c1ccc(-c2nc3cc(OCCOCCOCC[18F])ccc3o2)cn1
7.24
CN(C)c1ccc(-c2nc3cc(OCC[18F])ccc3o2)cn1
4.39
CN(C)c1ccc(-c2nc3ccc(OCCOCCOCC[18F])cc3s2)cn1
6.79
CNc1ccc(-c2nc3cc(OCCOCCOCC[18F])ccc3o2)cn1
6.47

Batch request: Drug uptake for each of the following compounds.
1. CNc1ccc(-c2nc3ccc(OCC[18F])cc3s2)cn1
2. CNc1ccc(-c2nc3ccc(OCCOCCOCC[18F])cc3s2)cn1
3. CNc1ccc(-c2nc3cc(OCC[18F])ccc3o2)cn1

Ans:
1: 4.28; 2: 8.16; 3: 3.95

---

# Tested on: Kidney
# assayRemarks: Drug uptake in ICR mouse kidney at 370 kBq/100 ul, iv at 10 mins by gamma-counting analysis
# Format: ADME, organism-based
# measurementContext: in vivo
readoutLabel: Drug uptake
Value and unit, in that order.

Batch request: Drug uptake for each of the following molecules.
1. CNc1ccc(-c2nc3ccc(OCC[18F])cc3s2)cn1
2. CNc1ccc(-c2nc3cc(OCC[18F])ccc3o2)cn1
3. CN(C)c1ccc(-c2nc3cc(OCCOCCOCC[18F])ccc3o2)cn1
4. CNc1ccc(-c2nc3cc(OCCOCCOCC[18F])ccc3o2)cn1
5. CNc1ccc(-c2nc3ccc(OCCOCCOCC[18F])cc3s2)cn1
6. CN(C)c1ccc(-c2nc3cc(OCC[18F])ccc3o2)cn1
7. CN(C)c1ccc(-c2nc3ccc(OCCOCCOCC[18F])cc3s2)cn1

Ans:
4.42 % ID/g
3.52 % ID/g
5.14 % ID/g
4.79 % ID/g
4.04 % ID/g
3.82 % ID/g
5.45 % ID/g

---

# System: Brain
# assayRemarks: Drug uptake in ICR mouse brain at 370 kBq/100 ul, iv at 60 mins by gamma-counting analysis
# Type: ADME, organism-based
# measurementContext: in vivo, 1 h
Provide the recorded Drug uptake for the entries that follow.
Answers are plain numbers, in % ID/g.

CNc1ccc(-c2nc3ccc(OCCOCCOCC[18F])cc3s2)cn1
1.26
CN(C)c1ccc(-c2nc3cc(OCCOCCOCC[18F])ccc3o2)cn1
1.82
CN(C)c1ccc(-c2nc3ccc(OCCOCCOCC[18F])cc3s2)cn1
1.84
CNc1ccc(-c2nc3ccc(OCC[18F])cc3s2)cn1
2.83
CNc1ccc(-c2nc3cc(OCC[18F])ccc3o2)cn1
1.55
CNc1ccc(-c2nc3cc(OCCOCCOCC[18F])ccc3o2)cn1
1.78

Q: Report Drug uptake for `CN(C)c1ccc(-c2nc3cc(OCC[18F])ccc3o2)cn1` please.
Ans: 1.47

---

Provide the recorded Drug uptake for the entries that follow.
# Test system: Blood
# assayRemarks: Drug uptake in ICR mouse blood at 370 kBq/100 ul, iv at 60 mins by gamma-counting analysis
# Type: ADME, organism-based
# measurementContext: in vivo, 1 h
One number for each entry, in % ID/g.

Some compounds with recorded Drug uptake:
CN(C)c1ccc(-c2nc3cc(OCCOCCOCC[18F])ccc3o2)cn1
2.87
CNc1ccc(-c2nc3cc(OCC[18F])ccc3o2)cn1
3.2
CN(C)c1ccc(-c2nc3cc(OCC[18F])ccc3o2)cn1
2.06
CN(C)c1ccc(-c2nc3ccc(OCCOCCOCC[18F])cc3s2)cn1
3.79
CNc1ccc(-c2nc3ccc(OCCOCCOCC[18F])cc3s2)cn1
2.94
CNc1ccc(-c2nc3cc(OCCOCCOCC[18F])ccc3o2)cn1
2.74

Lab note: next compound to report on.
Q: Report Drug uptake for `CNc1ccc(-c2nc3ccc(OCC[18F])cc3s2)cn1` please.
Ans: 4.45

Entry source: ChEMBL document CHEMBL2177098
